PIM-1 (Homo sapiens) IC50 data
Sequence (P11309 whole entry, species assumed): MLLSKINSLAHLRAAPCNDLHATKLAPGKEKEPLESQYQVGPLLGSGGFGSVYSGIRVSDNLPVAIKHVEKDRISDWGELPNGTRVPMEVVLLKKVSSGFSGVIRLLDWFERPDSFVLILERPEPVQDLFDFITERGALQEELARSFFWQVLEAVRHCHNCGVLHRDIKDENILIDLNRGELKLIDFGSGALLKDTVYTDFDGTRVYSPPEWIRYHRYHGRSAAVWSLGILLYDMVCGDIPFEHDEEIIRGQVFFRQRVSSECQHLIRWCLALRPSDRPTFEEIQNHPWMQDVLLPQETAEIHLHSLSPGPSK
Structures can show the parent of a compound that is named as a salt.
measuredParameter: IC50 (nM)

# compound, system, measuredParameter, reportedResult
records = [
    ("CC1(COc2ccc3ccc(-c4nnc5ccc([C@@H](N6CC[C@H](N)C6)C(F)(F)F)cn45)nc3c2)COC1 [Example 198, diformate]", "PIM-1 (Homo sapiens)", "IC50", 0.14),
]

I: C[C@H](CO)Oc1cccc2ccc(-c3nnc4ccc([C@@H](N5CC[C@H](N)C5)C(F)(F)F)cn34)nc12 [Example 186, dihydrochloride]
II: CCc1cccc2ccc(-c3nnc4ccc([C@@H](N5C[C@@H]6C[C@H]5CN6)C(F)(F)F)cn34)nc12 [Example 66, dihydrochloride]
III: COc1c(F)cc2ccc(-c3nnc4ccc([C@@H](N5CC[C@H](N)C5)C(F)(F)F)cn34)nc2c1F [Example 178, dihydrochloride]
IV: N[C@H]1CCN([C@H](c2ccc3nnc(-c4ccc5cccc(O)c5n4)n3c2)C(F)(F)F)C1 [Example 208, dihydrochloride]
(Q) # rank by IC50, ascending (min first) # respond with the labels, arranged in the requested order
(A) I, IV, II, III
(I: 0.16 nM, IV: 0.41 nM, II: 0.92 nM, III: 1.81 nM)

----------
PIM-1 (Homo sapiens) pIC50 data
pIC50: −log10 of the molar value. Where a name gives a salt, the structure may show the parent alone.
measuredParameter: pIC50

Below are worked cases with known answers.
# molecule, pIC50
data = [
    ("CC1(NC(=O)c2ccc3ccc(-c4nnc5ccc([C@@H](N6CC[C@H](N)C6)C(F)(F)F)cn45)nc3c2)CC1 [Example 53, dihydrochloride]", 9.62),
    ("CN[C@H]1CCN([C@H](c2ccc3nnc(-c4ccc5cccc(OC(C)C)c5n4)n3c2)C(F)(F)F)C1 [Example 36, dihydrochloride]", 9.74),
    ("CC(C)Oc1cccc2ccc(-c3nnc4ccc([C@@H](N5C[C@@H](N)[C@@H](O)C5)C(F)(F)F)cn34)nc12 [Example 129, dihydrochloride]", 8.80),
]

P: N[C@H]1CCN([C@H](c2ccc3nnc(-c4ccc5cc(F)cc(O)c5n4)n3c2)C(F)(F)F)C1 [Example 163, hydrochloride]
Q: CC(C)C(=O)Nc1ccc2ccc(-c3nnc4ccc(C(N5CC[C@H](N)C5)C(F)(F)F)cn34)nc2c1 (stereo partly drawn)
(Q) Which record shows the lower pIC50: the first, P , or the second, Q ? # respond with the chosen item's label
(A) P

----------
Target: recombinant rat PIM-3 (Rattus norvegicus, UniProt O70444)
Assay: PIM-3 Assay (as Example A)
Settings: averaged IC50; 30 μM ATP, 3.75 μM PIM2tide, 0.5 nM PIM-3
Counter-ions that a name gives are not always drawn.
measuredParameter: IC50 (nM)

Below are worked cases with known answers.
# molecule, system, measureUnit, reportedResult
records = [
    ("COCCOc1ccc2ccc(-c3nnc4ccc([C@@H](N5CC[C@H](N)C5)C(F)(F)F)cn34)nc2c1C [Example 117, hydrochloride]", "recombinant rat PIM-3 (Rattus norvegicus, UniProt O70444)", "nM", 0.4),
    ("CC(C)Oc1cccc2ccc(-c3nnc4ccc([C@H](N5CCC(C)(O)C5)C(F)(F)F)cn34)nc12 (single isomer, unassigned; diastereomer 2) [Example 207]", "recombinant rat PIM-3 (Rattus norvegicus, UniProt O70444)", "nM", 40),
    ("C[C@]1(N)CCN([C@H](c2ccc3nnc(-c4ccc5cccc(C6CC6)c5n4)n3c2)C(F)(F)F)C1 [Example 97, dihydrochloride]", "recombinant rat PIM-3 (Rattus norvegicus, UniProt O70444)", "nM", 8.1),
    ("CC(C)Oc1cccc2ccc(-c3nnc4ccc([C@H](N5CCC(C)(O)C5)C(F)(F)F)cn34)nc12 (single isomer, unassigned; diastereomer 1) [Example 199]", "recombinant rat PIM-3 (Rattus norvegicus, UniProt O70444)", "nM", 30),
]

1: Cc1cc(F)cc2ccc(-c3nnc4ccc([C@@H](N5CC[C@H](N)C5)C(F)(F)F)cn34)nc12 [Example 184, dihydrochloride]
2: COCCc1cc2nc(-c3nnc4ccc([C@H](N5CC[C@](C)(N)C5)C(F)(F)F)cn34)ccc2cc1F [Example 284, dihydrochloride]
(Q) Recorded IC50 values differ for 1 and 2 ; which one is higher? # respond with the chosen item's label
(A) 1
